// data source = PubChem BioAssay (NCI)

Assay: NCI Yeast Anticancer Drug Screen. Data for the mec2-1 strain (AID 157)
Details: S. cerevisiae mec2-1 strain, at 50.0 µM (retest, dose inferred, filed as 5.0)
This is part of a sample that, as a whole, favours compounds with a hit. Of some 79,000 tested, about 15% had one in any assay. The source made the active and inactive calls. No stated cut-off is given here; in the data, active means growth inhibition above about 70%; inactive means the rest.
Pick one: active, inactive

CCOP(=S)(S)OCC.[Pd]
inactive
ClC(C[n+]1ccccc1)c1ccccc1 (stereo not drawn)
inactive
N#CC(C#N)=Cc1cccc([N+](=O)[O-])c1
active

Field: outcome | Entry: `CC(C)COP(=O)(O)OCC(C)C.[Al]` inactive

Field: outcome | Entry: `CCCC[CH2][Sn]([CH2]CCCC)[CH2]CCCC.CCCC[CH2][Sn]([CH2]CCCC)[CH2]CCCC` active

Field: outcome | Entry: `NC(=O)c1ccc(N)nc1` inactive

Field: outcome | Entry: OC(c1ccc(Br)cc1)C(Cl)(Cl)Cl (stereo not drawn) active

Field: outcome | Entry: CC1=CC2OC3CC4OC(=O)/C=C/C=C/C(C(C)O)OCC(O)C(C)CC(=O)OCC2(CC1O)C4(C)C31CO1 (stereo not drawn) active

Field: outcome | Entry: CCC[CH2][Sn]1([CH2]CCC)[O]CC(CN2CCCC2)[O]1 (stereo not drawn) active

Field: outcome | Entry: `N#C[S-].[Ce+3].c1ccc(-c2ccccn2)nc1.c1ccc(-c2ccccn2)nc1.c1ccc(-c2ccccn2)nc1` active

Field: outcome | Entry: CN(Cc1ccccc1)CC(O)c1ccc(Cl)cc1 (stereo not drawn) inactive
